src = ChEMBL document CHEMBL4340558

- Tested Target: UniProt Q13822
Readout Label: IC50 (µM)
Output spec: scalar in µM, unitless text.

Look over these answered cases.
Query: Would you mind telling me what IC50 value was observed for O=C(Nc1ccc(OS(=O)(=O)c2ccccc2)cc1)C1CCCCC1 ?
Result: 23.8

Query: Try the molecule O=C(Nc1ccc(OS(=O)(=O)c2ccc(C(F)(F)F)cc2)cc1)C1CCCCCCC1
Result: 0.679

Query: Then O=C(Nc1ccc(OS(=O)(=O)c2cccc3cccnc23)cc1)c1ccc2ccccc2c1 ?
Result: 2.46

The record that follows has no IC50 shown yet.
Query: Bench note: what IC50 did Cc1ccc(S(=O)(=O)Oc2ccc(NC(=O)C3CCCCCCC3)cc2)cc1 show?
Result: 80.3
